Recorded measurements of Ki, one per entry
Test target: GSK3β (H350L) (Homo sapiens (Human))
Sequence (P49841 whole entry, stated change not applied): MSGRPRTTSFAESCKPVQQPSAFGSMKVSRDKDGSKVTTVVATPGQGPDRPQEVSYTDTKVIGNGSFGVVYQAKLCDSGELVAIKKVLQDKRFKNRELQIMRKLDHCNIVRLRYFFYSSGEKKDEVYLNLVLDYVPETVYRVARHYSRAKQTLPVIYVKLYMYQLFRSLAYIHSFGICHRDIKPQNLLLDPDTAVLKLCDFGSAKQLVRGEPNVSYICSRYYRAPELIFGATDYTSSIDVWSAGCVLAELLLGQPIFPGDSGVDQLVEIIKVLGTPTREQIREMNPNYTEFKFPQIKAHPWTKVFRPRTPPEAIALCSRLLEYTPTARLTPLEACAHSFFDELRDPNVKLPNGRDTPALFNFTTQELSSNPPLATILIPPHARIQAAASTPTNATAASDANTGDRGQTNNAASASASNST
Condition: read-out: GSK3β Ki

[
  {
    "Substance smiles": "C[C@]1(O)CC[C@H](NC(=O)O[C@@H]2CC[C@H](c3cc(NC(=O)Cc4cc(F)cc(F)c4)n[nH]3)C2)CC1",
    "Qualifier": "=",
    "Ki [nM]": 14.1
  },
  {
    "Substance smiles": "Cc1cc(CC(=O)Nc2cc([C@H]3CC[C@@H](OC(=O)N4[C@@H](C)CC[C@@H]4C)C3)[nH]n2)on1",
    "Qualifier": "=",
    "Ki [nM]": 14.9
  },
  {
    "Substance smiles": "CC[C@H](C)NC(=O)O[C@@H]1CC[C@H](c2cc(NC(=O)Cc3cc(OC)ncc3S(C)(=O)=O)n[nH]2)C1",
    "Qualifier": "=",
    "Ki [nM]": 116
  },
  {
    "Substance smiles": "COc1ccc(CC(=O)Nc2cc([C@H]3CC[C@@H](OC(=O)NCC(F)F)C3)[nH]n2)cn1",
    "Qualifier": "=",
    "Ki [nM]": 10.6
  },
  {
    "Substance smiles": "C[C@]1(O)CC[C@H](NC(=O)O[C@H]2CC[C@@H](c3cc(NC(=O)Cc4ccccc4)n[nH]3)C2)CC1",
    "Qualifier": "=",
    "Ki [nM]": 8.58
  },
  {
    "Substance smiles": "COc1ccc(CC(=O)Nc2cc([C@@H]3CC[C@H](OC(=O)N[C@H]4CC[C@@H](O)CC4)C3)[nH]n2)nc1",
    "Qualifier": "=",
    "Ki [nM]": 5.11
  },
  {
    "Substance smiles": "CC(C)NC(=O)O[C@H]1CC[C@@H](c2cc(NC(=O)Cc3cnn(C)c3)n[nH]2)C1",
    "Qualifier": "=",
    "Ki [nM]": 32.6
  },
  {
    "Substance smiles": "COCc1cc(C(=O)Nc2cc([C@H]3CC[C@@H](OC(=O)NCCC(F)(F)F)C3)[nH]n2)n(C)n1",
    "Qualifier": ">",
    "Ki [nM]": 47.6
  },
  {
    "Substance smiles": "Cc1ncc(CC(=O)Nc2cc([C@H]3CC[C@@H](OC(=O)N4C[C@@](C)(O)[C@@H]4C)C3)[nH]n2)s1",
    "Qualifier": "=",
    "Ki [nM]": 6.31
  },
  {
    "Substance smiles": "Cc1coc(CC(=O)Nc2cc([C@H]3CC[C@@H](OC(=O)NC(C)C)C3)[nH]n2)n1",
    "Qualifier": "=",
    "Ki [nM]": 40.9
  },
  {
    "Substance smiles": "CC[C@H](C)NC(=O)O[C@@H]1CC[C@H](c2cc(NC(=O)Cc3nc(C)cs3)n[nH]2)C1",
    "Qualifier": "=",
    "Ki [nM]": 26.1
  },
  {
    "Substance smiles": "CCN(C)C(=O)O[C@@H]1CC[C@H](c2cc(NC(=O)Cc3cc(F)cc(F)c3)n[nH]2)C1",
    "Qualifier": "=",
    "Ki [nM]": 19.2
  },
  {
    "Substance smiles": "Cc1cc(CC(=O)Nc2cc([C@H]3CC[C@@H](OC(=O)N4CCOCC4(C)C)C3)[nH]n2)on1",
    "Qualifier": "=",
    "Ki [nM]": 9.2
  },
  {
    "Substance smiles": "C[C@H](CC(F)(F)F)NC(=O)O[C@@H]1CC[C@H](c2cc(NC(=O)Cc3cnn(C)c3)n[nH]2)C1",
    "Qualifier": "=",
    "Ki [nM]": 42.7
  }
]

Data provenance is patent US11014911B2.
